Assignment: determine reported Kd (wt)/Kd for the given binders.
Experimental Target: T1, VEGF (human, UniProt P15692-4 27-191, limits assumed)
T1 construct: also called vascular endothelial growth factor; biotinylated VEGF
Assay Explanation: BIAcore-2000 SPR, wt = Y0192

Please report the recorded Kd (wt)/Kd for Y0238-7 (Fab, V domains shown, Clone of library YC-81 on the pY0192 template; Soluble Fab) VH: EVQLVESGGGLVQPGGSLRLSCAASGYTFTNYGINWVRQAPGKGLEWVGWINTYTGEPTYAADFKRRFTFSLDTSKSTAYLQMNSLRAEDTAVYYCAKYPYYWGTSHWYFDVWGQGTL VL: DIQLTQSPSSLSASVGDRVTITCRANEQLSNYLNWYQQKPGKAPKVLIYFTSSLHSGVPSRFSGSGSGTDFTLTISSLQPEDFATYYCQQYSTVPWTFGQGTKVEIKR .
≥ 7.3 ratio

Please report the recorded Kd (wt)/Kd for Y0238-3 (Fab, V domains shown, Soluble Fab from E. coli 34B8) VH: EVQLVESGGGLVQPGGSLRLSCAASGYTFTNYGINWVRQAPGKGLEWVGWINTYTGEPTYAADFKRRFTFSLDTSKSTAYLQMNSLRAEDTAVYYCAKYPYYYGTSHWYFDVWGQGTL VL: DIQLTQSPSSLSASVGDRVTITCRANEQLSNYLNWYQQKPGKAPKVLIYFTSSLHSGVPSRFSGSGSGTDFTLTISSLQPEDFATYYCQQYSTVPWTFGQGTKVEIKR .
≥ 14 ratio

Please report the recorded Kd (wt)/Kd for Y0313-1 (Fab, V domains shown, Y0243-1 with VH3 H101Y and S105T; soluble Fab) VH: EVQLVESGGGLVQPGGSLRLSCAASGYDFTHYGMNWVRQAPGKGLEWVGWINTYTGEPTYAADFKRRFTFSLDTSKSTAYLQMNSLRAEDTAVYYCAKYPYYYGTSHWYFDVWGQGTL VL: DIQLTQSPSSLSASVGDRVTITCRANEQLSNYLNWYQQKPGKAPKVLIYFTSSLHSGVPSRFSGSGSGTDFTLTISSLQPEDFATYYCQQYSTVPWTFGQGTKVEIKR .
≥ 20 ratio

Please report the recorded Kd (wt)/Kd for Y0244-1 (Fab, V domains shown, Soluble Fab) VH: EVQLVESGGGLVQPGGSLRLSCAASGYTFTNYGINWVRQAPGKGLEWVGWINTYTGEPTYAADFKRRFTFSVDVSKSTAYLQMNSLRAEDTAVYYCAKYPHYYGSSHWYFDVWGQGTL VL: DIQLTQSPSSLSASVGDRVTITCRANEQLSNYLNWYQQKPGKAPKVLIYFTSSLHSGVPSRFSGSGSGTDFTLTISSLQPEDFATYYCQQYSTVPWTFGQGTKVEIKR .
3.6 ratio

These measurements were taken from patent US20070196374A1.
